# System: HEK293
# procedureText: Cytotoxic Profiling of Annotated Libraries Using Quantitative High-Throughput Screening (AID 1296008); note: % is set by controls: 0 for no effect and ±100 for the full control effect; nearly all actives have a fitted effect of over 60% in size
# experimentalSetup: Five cell lines viability, CellTiter-Glo ATP luminescence, 48-72 h; hits give low values
Records with an inconclusive call do not appear.
I'd appreciate it if you could supply max response values for the items below.
Give just the numeric value; % need not be written.

Task: max response for CC1(C)CCC2(C(=O)O)CCC3(C)C(=CCC4C5(C)CCC(O)C(C)(CO)C5C(O)CC43C)C2C1 (centres undefined) ?
Output: 4.6

Task: max response for C=CC(C)(C)C12Nc3c(ccc4c3OC(C)(C)C=C4)C1(O)CC1C(=O)N3CCCC3C(=O)N12 (centres undefined) ?
Output: -7.42

Task: max response for "CC1=CC2=C(C)C(=O)[C@](C)(O)[C@H](O)C2=CO1" ?
Output: 3.6

Task: max response for "C/C=C(\C)C(=O)O[C@H]1C=CC(=O)O[C@H]1/C=C/[C@H](O)[C@@H](C)O" ?
Output: -103

Task: max response for "COc1ccc(Oc2c(Cl)cnn(C3c4ccccc4-c4ccccc43)c2=O)cc1" ?
Output: -2.77

Task: max response for CC(=O)OC1CC(=O)C2(C)C3CC4=C(OC(C)CC4=O)OC3(C)CCC2C1(C)C (centres undefined) ?
Output: 2.23

Task: max response for "Cc1ccc(Cl)cc1N(CC(=O)Nc1c(F)cccc1F)S(C)(=O)=O" ?
Output: -7.88

Task: max response for C/C=C/C(=O)OC1/C=C/C(O)C(OC(C)=O)CCC(=O)OC1C (centres undefined) ?
Output: 3.73

Task: max response for CCC(C)/C=C(C)/C=C/C1=CC2=C(Cl)C(=O)C(C)(OC(C)=O)C(=O)C2=CN1C(CCCN=C(N)N)C(=O)O (centres undefined) ?
Output: 3

----------
# System: Tov-21-G
# procedureText: Primary qHTS to identify gynecologic anti-cancer compounds using libraries of approved drugs and bioactive compounds (AID 1345084); note: % is set by controls: 0 for no effect and ±100 for the full control effect; nearly all actives have a fitted effect of over 55% in size
# experimentalSetup: Gynecologic cancer cell panel viability, ATPlite luminescence, 48 h; series mostly up to 57.5 µM
Results filed as inconclusive are left out. Calls of active or inactive are those of the source. Calls come from the whole dose curve; as a rule, active = well fitted cell-killing curve with a large enough effect; inconclusive = small, poorly fitted or top-dose-only effect, or effect the other way; inactive = flat fitted curve, though single readings scatter.
I'd appreciate it if you could supply activity change, negative = cytotoxicity values for the items below.

Task: activity change, negative = cytotoxicity for CC1(C)CC[C@]2(C(=O)O[C@@H]3O[C@H](CO[C@@H]4O[C@H](CO)[C@@H](O)[C@H](O)[C@H]4O)[C@@H](O)[C@H](O[C@@H]4O[C@H](CO)[C@@H](O)[C@H](O)[C@H]4O)[C@H]3O)CC[C@]3(C)C(=CCC4[C@@]5(C)CC[C@H](O[C@@H]6OC[C@@H](O)[C@H](O)[C@H]6O)[C@@](C)(C(=O)O)C5CC[C@]43C)[C@@H]2C1 (some centres not stated) ?
Output: 10.6% [at 11.6 µM] (inactive)

Task: activity change, negative = cytotoxicity for CC(=O)OCC1OC(O[C@H]2CC[C@]34C[C@]35CC(O)[C@]3(C)[C@@H]([C@H](C)CC/C=C(\C)C(=O)O)C(O)C[C@@]3(C)C5CC[C@H]4C2(C)C)C(O)C(O)C1OC1OCC(O)C(O)C1O (some centres not stated) ?
Output: 4.53% [at 11.6 µM] (inactive)

----------
# Tested on: HEK293
# procedureText: Cytotoxic Profiling of Annotated Libraries Using Quantitative High-Throughput Screening (AID 1296008); note: % is set by controls: 0 for no effect and ±100 for the full control effect; nearly all actives have a fitted effect of over 60% in size
# experimentalSetup: Five cell lines viability, CellTiter-Glo ATP luminescence, 48-72 h; hits give low values
Inconclusive results are not listed.
I'd appreciate it if you could supply max response values for the items below.
Give just the numeric value; % need not be written.

Task: max response for Cc1occc(=O)c1O[C@@H]1O[C@H](COC(=O)CC(C)(O)CC(=O)O)[C@@H](O)[C@H](O)[C@H]1O (some centres not stated) ?
Output: -5.53

Task: max response for C=C1CC[C@]2(C(=O)O[C@@H]3O[C@H](CO)[C@@H](O)[C@H](O)[C@H]3O)CC[C@]3(C)C(=CCC4[C@@]5(C)C[C@H](O)[C@@H](O[C@@H]6O[C@H](C(=O)O)[C@@H](O)[C@H](O)[C@H]6O)[C@](C)(C=O)C5CC[C@]43C)C2C1 (some centres not stated) ?
Output: -16.5

Task: max response for "N#Cc1cccc(-c2nc(-c3cccnc3)no2)c1" ?
Output: -8.6

Task: max response for CC1C(O)C(O)C2C(C(=O)OCCc3ccc(O)cc3)=COC(O[C@@H]3O[C@H](CO)[C@@H](O)[C@H](O)[C@H]3O)C12 (some centres not stated) ?
Output: -0.685

Task: max response for "CC(=O)c1c(C)cccc1O[C@@H]1O[C@H](CO)[C@@H](O)[C@H](O)[C@H]1O" ?
Output: -3.42

Task: max response for "C[C@@H]1O[C@@H](O[C@@H]2\C=C/C=C\C=C/C=C\C[C@H](C)OC(=O)/C=C\[C@H]3O[C@@H]3C[C@H](O)C[C@]3(O)C[C@@H](O)[C@@H](C(=O)O)[C@H](C2)O3)[C@H](O)[C@H](N)[C@@H]1O" ?
Output: 3.56

Task: max response for "O=C(Nc1ccn(Cc2c(F)cccc2C(F)(F)F)n1)c1c(F)cccc1F" ?
Output: 1.72

Task: max response for COC(=O)C1=COC(OC2OC(CO)C(O)C(O)C2O)C2C(C)C(OC(C)=O)C(OC(=O)c3ccccc3)C12 (configuration not stated) ?
Output: -48.1

Task: max response for COc1c2c(c(C)c3c1C(=O)OC3)OC1(C)CC(O)C34OC(O)(CCC3(C)C1C2)OC4(C)C (configuration not stated) ?
Output: -9.5

Task: max response for NC(Cc1c[nH]c2ccc(O)cc12)C(=O)O (configuration not stated) ?
Output: -8.59

Task: max response for CC(=O)/C=C/[C@H]1[C@](C)(O)[C@@H](O)[C@H](O)C2C(C)(C)CCC[C@@]21C (some centres not stated) ?
Output: -5.03

Task: max response for "CC(=O)OC[C@]12[C@H](OC(C)=O)[C@H](OC(=O)c3ccccc3)[C@@H]3[C@@H](OC(C)=O)[C@]1(OC3(C)C)[C@H](C)C[C@H](OC(=O)c1ccccc1)[C@@H]2OC(=O)c1ccccc1" ?
Output: -0.732

Task: max response for "Cc1cc(CO)c(O)c(C(=O)CC2CC(=O)NC(=O)C2)c1" ?
Output: 4.74

Task: max response for O=C(O)CC(CCc1ccccc1)OC1OC(CO)C(O)C(O)C1O (configuration not stated) ?
Output: -5.21

Task: max response for C[C@H]1[C@H](C)CC[C@]2(C(=O)O)CC[C@]3(C)C(=CCC4[C@@]5(C)C[C@@H](O)[C@H](O)C(C)(C)C5CC[C@]43C)[C@H]12 (some centres not stated) ?
Output: 3.03

Task: max response for CC1=C2C3OC(=O)C(C)C3(O)CCC2(C)CCC1 (configuration not stated) ?
Output: 2.89

Task: max response for "Nc1ccc(-n2nc(C(F)(F)F)cc2C(F)(F)F)cc1" ?
Output: -3.16

----------
# Test system: Zika virus NS2B-NS3 protease (unlinked complex)
# procedureText: Primary screen GU Rhodamine qHTS for Zika virus inhibitors: Unlinked NS2B-NS3 protease assay (AID 1347159); note: nearly all actives have a fitted effect of over 60% in size
# experimentalSetup: Recombinant ZIKV NS2B-NS3 protease, Rhodamine110 substrate fluorescence; series mostly up to 107 µM
Inconclusive results are not listed. The source made the active and inactive calls. The call rests on the fitted dose curve; in most records, active means well fitted inhibition curve with a large enough effect; inconclusive means small, poorly fitted or top-dose-only effect; inactive means no such curve, though single readings can be large or run the other way. Where a SMILES comes first, the peptide text is derived from it. The star is where a group is joined. βNA = c1ccc2cc(N*)ccc2c1; Cbz = O=C(OCc1ccccc1)*
Return exactly one item of active, inactive

Task: I'd appreciate the recorded outcome for C=C(C(=O)O)C1CC(O)C2(C)CCCC(C)(O)C2C1 (stereo unspecified) from this test.
Output: inactive

Task: I'd appreciate the recorded outcome for Cc1cc(Cn2cnc3c2CC(C(=O)O)N(C(=O)C(c2ccccc2)c2ccccc2)C3)ccc1N(C)C (stereo unspecified) from this test.
Output: inactive

Task: I'd appreciate the recorded outcome for "O=C(O)[C@H](Cc1ccccc1)Oc1ccc(-c2ccccc2)cc1" from this test.
Output: active

Task: I'd appreciate the recorded outcome for COc1ccc(/C=C/C(=O)O[C@@H]2[C@@H](O[C@@H]3O[C@H](CO)[C@@H](O)[C@H](O)[C@H]3O)[C@@H](O)[C@H](O[C@H]3C4C=CO[C@@H](O[C@@H]5O[C@H](CO)[C@@H](O)[C@H](O)[C@H]5O)C4[C@@]4(CO)O[C@@H]34)O[C@H]2C)cc1 (stereo partly specified) from this test.
Output: inactive

Task: I'd appreciate the recorded outcome for CC(C)CC(NC(=O)OCc1ccccc1)C(=O)NC(CC(C)C)C(=O)NC(CCC(=O)O)C(=O)Nc1ccc2ccccc2c1 (stereo not drawn) (Cbz-Leu-Leu-Glu-βNA; configuration not given here) from this test.
Output: active

Task: I'd appreciate the recorded outcome for "COc1cc2c(cc1OC)N1C(=O)C[C@@]34C=CC[N@+]5([O-])CC[C@H]2[C@H](CC3)[C@@]145" from this test.
Output: inactive

Task: I'd appreciate the recorded outcome for C/C=C/C=C/C=C/C(=O)OC1C=C2C(O)OC(=O)[C@]2(O)[C@@]2(C)CCCC(C)(C)[C@H]12 (stereo partly specified) from this test.
Output: active

Task: I'd appreciate the recorded outcome for Cc1occc(=O)c1O[C@@H]1O[C@H](COC(=O)CC(C)(O)CC(=O)O)[C@@H](O)[C@H](O)[C@H]1O (stereo partly specified) from this test.
Output: inactive

Task: I'd appreciate the recorded outcome for C/C=C1/CC2C(=O)Nc3cc(O)c(OC)cc3C(=O)N2C1 (stereo unspecified) from this test.
Output: inactive

Task: I'd appreciate the recorded outcome for "CC1=CC[C@@]2(C)CC[C@@](O)(C(C)C)[C@@H]2[C@@H](O)C1" from this test.
Output: inactive

Task: I'd appreciate the recorded outcome for "COc1cc(Nc2ccc([N+](=O)[O-])cc2C(=O)O)cc2ccccc12" from this test.
Output: active

Task: I'd appreciate the recorded outcome for "COC(=O)C1=CO[C@@H](O[C@@H]2O[C@H](CO)[C@@H](O)[C@H](O)[C@H]2O)[C@@H]2[C@@H](C(=O)O)CC[C@H]12" from this test.
Output: inactive

Task: I'd appreciate the recorded outcome for CC1C(=O)OCC2=CC[N+]3([O-])CCC(OC(=O)C(C)(O)C1(C)O)C23 (stereo unspecified) from this test.
Output: inactive

Task: I'd appreciate the recorded outcome for "CC1(C)C[C@H]2C=C(C=O)[C@]3(C(=O)O)C[C@]3(C)[C@H]2C1" from this test.
Output: active

Task: I'd appreciate the recorded outcome for COC(=O)C(CC1CCCC1)c1ccc(S(C)(=O)=O)cc1 (stereo unspecified) from this test.
Output: inactive

Task: I'd appreciate the recorded outcome for "COc1cc(/C=C/C(=O)O[C@@H]2C[C@](O)(C(=O)O)C[C@@H](O)[C@H]2O)ccc1O" from this test.
Output: inactive
